Procedure details: In vitro human skin penetration, Franz diffusion chamber
Type: in vitro ADME
Test settings: 0.03% in Formulation A; applied agent
Description: Experimental Design. Test material: Dermatomed ex vivo human cadaver posterior trunk skin on 1.0 cm^2 Franz diffusion chamber as known in the art. Test size: 3 skin donors (obtained from New York Firefighters Skin Bank), 3 replicates per donor per formulation. Test formulations: 0.03% active agent (Cmpd IVa, Cmpd IIIb, Cmpd IVb) in Formulation A; control formulation: bimatoprost at 0.03% in Formulation A. Dosing regimen: receptor fluid at 2, 4, 24, and 48 hrs; SC/epidermis and dermis at 48 hrs. […]
Listing: Percentage Dose Applied, Receptor Chamber Solution, Prodrug of selected compounds
Quantity kind: Percentage Dose Applied, Receptor Chamber Solution, Prodrug (%)

[[record]]
compound = "CCNC(=O)CCC/C=C\\C[C@@H]1[C@@H](/C=C/[C@@H](O)CCc2ccccc2)[C@H](O)C[C@@H]1O [bimatoprost, reference compound]"
quantitative_result = 1.1

[[record]]
compound = "CCNC(=O)CCC/C=C\\C[C@@H]1[C@@H](/C=C/[C@H](CCc2ccccc2)OC(=O)CC)[C@H](O)C[C@@H]1O [Cmpd IVb, 15-propionyl-bimatoprost]"
quantitative_result = 2.1

[[record]]
compound = "CCNC(=O)CCC/C=C\\C[C@@H]1[C@@H](/C=C/[C@@H](O)CCc2ccccc2)[C@H](OC(=O)CC)C[C@@H]1O [Cmpd IIIb, 11-propionyl bimatoprost]"
quantitative_result = 0.8

[[record]]
compound = "CCNC(=O)CCC/C=C\\C[C@@H]1[C@@H](/C=C/[C@H](CCc2ccccc2)OC(C)=O)[C@H](O)C[C@@H]1O [Cmpd IVa, 15-acetyl-bimatoprost]"
quantitative_result = 4.3

